Listed molecules paired with reported A/G
Organism: Rattus norvegicus
Assay protocol: Open TG-GATES - Regimen: Single
Type: toxicity, organism-based, Sprague-Dawley
Set-up: regimen Single, gender Male, age 6 weeks
Test parameters: in vivo, po, 0 mg/kg, 9 h, tissue Plasma, route gavage, dose level Control
Answer using only a numeral; do not append any unit.

Below, 4 molecules whose answers are already recorded.
{"Molecule": "Cn1cnc([N+](=O)[O-])c1Sc1ncnc2nc[nH]c12 [AZATHIOPRINE]", "Number": 1.3}
{"Molecule": "COc1ccc(O)c(C(C)(C)C)c1.COc1ccc(O)cc1C(C)(C)C [BUTYLATED HYDROXYANISOLE]", "Number": 0.9}
{"Molecule": "C=CCO [ALLYL ALCOHOL]", "Number": 1.5}
{"Molecule": "S=C=Nc1cccc2ccccc12 [1-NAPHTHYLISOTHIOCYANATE]", "Number": 1.8}

In the following, a different molecule is considered.
Request the reported A/G associated with COc1ccc(Cl)cc1C(=O)NCCc1ccc(S(=O)(=O)NC(=O)NC2CCCCC2)cc1 [GLYBURIDE]
1.7

###

Organism: Rattus norvegicus
Assay protocol: Open TG-GATES - Regimen: Single
Format: toxicity, organism-based, Sprague-Dawley
Parameters: regimen Single, gender Male, age 6 weeks
Test parameters: in vivo, po, 0 mg/kg, 3 h, tissue Plasma, route gavage, dose level Control
Listed compounds paired with reported ALP
A number alone suffices; assume IU/L.

Below, 5 compounds whose answers are already recorded.
{"Compound": "CNCCC(Oc1ccc(C(F)(F)F)cc1)c1ccccc1.Cl (stereo not given) [FLUOXETINE HYDROCHLORIDE]", "Recorded metric": "ALP", "Number": 1343.2}
{"Compound": "O=C1NC(=O)C(c2ccccc2)(c2ccccc2)N1", "Recorded metric": "ALP", "Number": 1709.4}
{"Compound": "O=C1CN(/N=C/c2ccc(-c3ccc([N+](=O)[O-])cc3)o2)C(O)=N1", "Recorded metric": "ALP", "Number": 876.8}
{"Compound": "S=C=Nc1cccc2ccccc12 [1-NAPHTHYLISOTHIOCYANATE]", "Recorded metric": "ALP", "Number": 937}
{"Compound": "COc1ccc(Cl)cc1C(=O)NCCc1ccc(S(=O)(=O)NC(=O)NC2CCCCC2)cc1 [GLYBURIDE]", "Recorded metric": "ALP", "Number": 1085}

Request the reported ALP associated with CS(=O)(=O)Nc1ccc([N+](=O)[O-])cc1Oc1ccccc1 [NIMESULIDE]
917.4

Request the reported ALP associated with C=CCO
946

Request the reported ALP associated with Cc1cccc(Nc2cc(Cl)nc(SCC(=O)O)n2)c1C
1509.2

Request the reported ALP associated with COc1ccc(O)c(C(C)(C)C)c1.COc1ccc(O)cc1C(C)(C)C [BUTYLATED HYDROXYANISOLE]
1750

Request the reported ALP associated with Cn1cnc([N+](=O)[O-])c1Sc1ncnc2nc[nH]c12
1465.6

###

Organism: Rattus norvegicus
Assay protocol: Open TG-GATES - Regimen: Daily Repeat
Format: toxicity, organism-based, Sprague-Dawley
Parameters: regimen Daily Repeat, gender Male, age 6 weeks
Test parameters: in vivo, po, 0 mg/kg, […], tissue Plasma, route gavage, dose level Control, time 14 day
Recorded metric: ALP (IU/L)
A number alone suffices; assume IU/L.

Below, 3 compounds whose answers are already recorded.
{"Compound": "O=C1NC(=O)C(c2ccccc2)(c2ccccc2)N1", "Unit abbreviation": "IU/L", "ALP": 1493.2}
{"Compound": "C=CCO", "Unit abbreviation": "IU/L", "ALP": 766.2}
{"Compound": "Cc1cnc(NC(=O)C2=C(O)c3ccccc3S(=O)(=O)N2C)s1", "Unit abbreviation": "IU/L", "ALP": 880.6}

Request the reported ALP associated with Cc1cccc(Nc2cc(Cl)nc(SCC(=O)O)n2)c1C
1141.6

Request the reported ALP associated with COc1ccc(Cl)cc1C(=O)NCCc1ccc(S(=O)(=O)NC(=O)NC2CCCCC2)cc1 [GLYBURIDE]
785.6

Request the reported ALP associated with Cn1cnc([N+](=O)[O-])c1Sc1ncnc2nc[nH]c12
1520.8

###

Species: Rattus norvegicus
Assay protocol: Open TG-GATES - Regimen: Daily Repeat
Assay type: toxicity, organism-based, Sprague-Dawley
Set-up: regimen Daily Repeat, gender Male, age 6 weeks
Test parameters: in vivo, po, 0 mg/kg, […], tissue Plasma, route gavage, dose level Control, time 14 day
Recorded metric: LDH (IU/L)
A number alone suffices; assume IU/L.

{"Compound": "Cn1cnc([N+](=O)[O-])c1Sc1ncnc2nc[nH]c12", "Recorded metric": "LDH", "Number": 153.2}

Request the reported LDH associated with O=C1NC(=O)C(c2ccccc2)(c2ccccc2)N1
136.4

Request the reported LDH associated with CS(=O)(=O)Nc1ccc([N+](=O)[O-])cc1Oc1ccccc1 [NIMESULIDE]
54

Request the reported LDH associated with O=P1(N(CCCl)CCCl)NCCCO1 (stereo unspecified) [CYCLOPHOSPHAMIDE ANHYDROUS]
152

Request the reported LDH associated with C=CCO
223.2

###

Species on record: Rattus norvegicus
Assay protocol: Open TG-GATES - Regimen: Single
Type: toxicity, organism-based, Sprague-Dawley
Set-up: regimen Single, gender Male, age 6 weeks
Test parameters: in vivo, po, 0 mg/kg, 24 h, tissue Kidney, route gavage, dose level Control
Listed compounds paired with reported KIDNEY_R
A number alone suffices; assume g.

Request the reported KIDNEY_R associated with C=CCO [ALLYL ALCOHOL]
1

Request the reported KIDNEY_R associated with O=C1CN(/N=C/c2ccc(-c3ccc([N+](=O)[O-])cc3)o2)C(O)=N1 [DANTROLENE]
1

Request the reported KIDNEY_R associated with Cc1cnc(NC(=O)C2=C(O)c3ccccc3S(=O)(=O)N2C)s1 [MELOXICAM]
1

Request the reported KIDNEY_R associated with O=C1NC(=O)C(c2ccccc2)(c2ccccc2)N1 [PHENYTOIN]
1

Request the reported KIDNEY_R associated with COc1ccc(Cl)cc1C(=O)NCCc1ccc(S(=O)(=O)NC(=O)NC2CCCCC2)cc1 [GLYBURIDE]
1

Request the reported KIDNEY_R associated with COc1ccc(O)c(C(C)(C)C)c1.COc1ccc(O)cc1C(C)(C)C [BUTYLATED HYDROXYANISOLE]
0.9

Request the reported KIDNEY_R associated with S=C=Nc1cccc2ccccc12 [1-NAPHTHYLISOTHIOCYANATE]
1

Request the reported KIDNEY_R associated with Cc1cccc(Nc2cc(Cl)nc(SCC(=O)O)n2)c1C [PIRINIXIC ACID]
0.9

###

Species on record: Rattus norvegicus
Assay protocol: Open TG-GATES - Regimen: Single
Assay type: toxicity, organism-based, Sprague-Dawley
Parameters: regimen Single, gender Male, age 6 weeks
Test parameters: in vivo, po, 0 mg/kg, 3 h, tissue Plasma, route gavage, dose level Control
Listed compounds paired with reported gamma-GTP
A number alone suffices; assume IU/L.

Below, 3 compounds whose answers are already recorded.
{"Compound": "CS(=O)(=O)Nc1ccc([N+](=O)[O-])cc1Oc1ccccc1 [NIMESULIDE]", "gamma-GTP, IU/L": 1.6}
{"Compound": "Cn1cnc([N+](=O)[O-])c1Sc1ncnc2nc[nH]c12", "gamma-GTP, IU/L": 1.2}
{"Compound": "C=CCO", "gamma-GTP, IU/L": 1.2}

Request the reported gamma-GTP associated with S=C=Nc1cccc2ccccc12 [1-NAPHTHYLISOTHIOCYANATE]
1

Request the reported gamma-GTP associated with CNCCC(Oc1ccc(C(F)(F)F)cc1)c1ccccc1.Cl (configuration not stated) [FLUOXETINE HYDROCHLORIDE]
0.4

Request the reported gamma-GTP associated with O=C1NC(=O)C(c2ccccc2)(c2ccccc2)N1
1.2

Request the reported gamma-GTP associated with Cc1cnc(NC(=O)C2=C(O)c3ccccc3S(=O)(=O)N2C)s1
1

###

Species: Rattus norvegicus
Assay protocol: Open TG-GATES - Regimen: Single
Format: toxicity, organism-based, Sprague-Dawley
Parameters: regimen Single, gender Male, age 6 weeks
Test parameters: in vivo, po, 0 mg/kg, 9 h, tissue Blood, route gavage, dose level Control
Note to self: WBC under 90 x10_2/uL means 1.0, ties and anything higher get 0.0.

{"Compound": "COc1ccc(Cl)cc1C(=O)NCCc1ccc(S(=O)(=O)NC(=O)NC2CCCCC2)cc1 [GLYBURIDE]", "Category label": 0.0}
{"Compound": "COc1ccc(O)c(C(C)(C)C)c1.COc1ccc(O)cc1C(C)(C)C [BUTYLATED HYDROXYANISOLE]", "Category label": 1.0}
{"Compound": "CS(=O)(=O)Nc1ccc([N+](=O)[O-])cc1Oc1ccccc1 [NIMESULIDE]", "Category label": 0.0}

Note: attention shifts to another entry.
Answer whether the compound O=C1CN(/N=C/c2ccc(-c3ccc([N+](=O)[O-])cc3)o2)C(O)=N1 has WBC strictly less than 90 x10_2/uL
0.0
